# system-tested: human PDE1C (Homo sapiens (Human))
# assay-summary: Ca2+ calmodulin dependent PDE enzyme assay (SPA, [3H]cAMP), PDE1C
# Format: biochemical
# test-conditions: [3H]cAMP 47 nM; enzyme 0.0012 nM; read-out: PDE 1C IC50 (nM) ± SD (n = number of runs)
observed-property: IC50 (nM)
Report only the number, with the unit nM understood.

Give IC50; test system human PDE1C (Homo sapiens (Human)); compound O=c1c2nnc(C3(C4CC4)CC3)n2c2c(n1CC1CCC1)CCOC2 [Example 5]
1.9

Give IC50; test system human PDE1C (Homo sapiens (Human)); compound CCCCn1c2c(n3c(C4(C5CC5)CC4)nnc3c1=O)CCOC2 [Example 7]
2

Give IC50; test system human PDE1C (Homo sapiens (Human)); compound O=c1c2nnc(C3(C4CC4)CC3)n2c2c(n1CC1CC1)CCOC2 [Example 3]
5.2

Give IC50; test system human PDE1C (Homo sapiens (Human)); compound O=c1c2nnc(C3(C4CC4)CC3)n2c2c(n1CC1CC1)COCC2 [Example 6]
7.6

Give IC50; test system human PDE1C (Homo sapiens (Human)); compound CCCCn1c2c(n3c(C4(C5CC5)CC4)nnc3c1=O)CCCC2 [Example 2]
1.4

Give IC50; test system human PDE1C (Homo sapiens (Human)); compound CCCn1c2c(n3c(C4(C5CC5)CC4)nnc3c1=O)CCCC2 [Example 1]
2.6

Give IC50; test system human PDE1C (Homo sapiens (Human)); compound O=c1c2nnc(C3(C4CC4)CC3)n2c2c(n1CC1CC1)CCCCC2 [Example 8]
4.7

Give IC50; test system human PDE1C (Homo sapiens (Human)); compound CCCCn1c2c(n3c(C4(C5CC5)CC4)nnc3c1=O)COCC2 [Example 4]
1.5

Origin of values: patent US11401274B2
